I'd appreciate it if you could supply 100 nM FACS (MFI Ratio) values for the items below.
Target: T1, neuropilin-1 (NRP1) on HEK293 cells overexpressing NRP1 (UniProt O14786 22-923, limits assumed)
T1 construct: whole, on cells
Experiment: flow cytometry, HEK293-NRP1 vs HEK293
Numbers only.

# binder, 100 nM FACS (MFI Ratio)
rows = [
    ("NRP1-118 (antibody, IgG2, V domains shown) VH: EVQLLESGGGLVQPGGSLRLSCAASGFTFNKYPMMWVRQAPGKGLEWVSRISVAGRRTAYADSVKGRFTISRDNSKNTLYLQMNSLRAEDTAVYYCAKWRREGYTGSKFDYWGQGTLVTVSS VL: DIQMTQSPSSLSASVGDRVTITCSASQDINKYLNWYQQKPGKAPKLLIYGTSNLESGVPSRFSGSGSGTDFTLTISSLQPEDFATYYCHTWDHHHTTGEHNVFGQGTKVEIK", 4.5),
    ("NRP1-47 (VHH) VHH: EVQLVESGGGLVQPGGSLRLSCAASGRSSRYYAMGWFRQAPGKEREFVAAIKWSGTSTYYADSVKGRFTISADNSKNTAYLQMNSLKPEDTAVYYCAADRMYRPVGNQYDWGQGTLVTVSS", 6.6),
]

Turning to the following binder.
-- ask Return the recorded 100 nM FACS (MFI Ratio) value; entry: NRP1-33 (VHH) VHH: EVQLVESGGGLVQPGGSLRLSCAASGRTFSSGTMGWFRQASGKEREFVARINSDGSTNYADSVKGRFTISADNSKNTAYLQMNSLKPEDTAVYYCAKWSSSWYGYYYYGMDVWGQGTLVTVSS
-- reply 335
